Sourced from PubChem BioAssay AID2716

# methodNotes: restored growth of temperature-sensitive Mot1-301 yeast – S. cerevisiae, ATP luminescence, 38.5C, SUMOylation pathway inhibitor project, primary screen (AID 2716);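 further: OY570 slx delta 5 strain wells were the positive control but not used for scaling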
# runParameters: S. cerevisiae Mot1-301 growth rescue, at 18.8 µM, active compounds read high, percent above DMSO median, 100 means doubled
The campaign covered roughly 320,000 compounds. About 3,300 (1%) were called active. This excerpt belongs to a sample that is enriched for actives.
propertyMeasured: growth rescue (%)
Numbers only, in %.

{"columns": ["molecule", "measurementUnits", "growth rescue"],
 "data": [
  ["COc1ccccc1OC(C)C(=O)Nc1ccc(S(=O)(=O)Nc2nccs2)cc1 (centres undefined)", "%", 7.27],
  ["N#C/C(=C(\\O)CCl)c1nnc2n1CCCCC2", "%", 10],
  ["CCC(CC)C(=O)Nc1ccc(S(=O)(=O)Nc2nccs2)cc1", "%", 441],
  ["COc1ccc(C2CC(=O)Nc3sc(=N)c4c(N)c(C#N)c(N)nc4c32)cc1OC (centres undefined)", "%", -31.5],
  ["CCCCCc1c(C)nc(N2CCN(Cc3ccc4c(c3)OCO4)CC2)[nH]c1=O", "%", -20.3]
]}

Here are 6 molecules. What values of growth rescue were reported for them?
1. Cc1ccc(Nc2cc(C)nc3c(C)ccc([N+](=O)[O-])c23)cc1
2. O=C(CNS(=O)(=O)c1ccc(Br)s1)NCc1ccc2c(c1)OCO2
3. Cc1ccc2c(c1)N(CC(=O)N1CCCC(C)C1)C(=O)CO2 (centres undefined)
4. CCCC[C@H]1COCCS(=O)(=O)N1Cc1cccc(Cl)c1
5. Cc1cc(Nc2ccc(C(=O)N3CCCCC3)cc2)c2cccc(C)c2n1
6. O=C1CC(Sc2ncn[nH]2)C(=O)N1c1ccccc1 (centres undefined)

1. 888
2. 17.3
3. 1.32
4. -7.4
5. 397
6. -26.4
